GI50 overview
# Tested on: COLO 205
# testDetails: NCI tumour cell line growth inhibition, 48 h
Activity calls are given as the source filed them. No stated cut-off is given here; in the data, active = GI50 up to about 1.1 µM and inactive = higher.

Please indicate GI50 recorded for COCC(O)CN1C(N)=NC(O)C1O (stereo unspecified)
> 100 µM (inactive)

Please indicate GI50 recorded for CC(=O)OC(C(=O)NNC(=O)OC(C)(C)C)c1ccccc1 (stereo unspecified)
> 100 µM (inactive)

Please indicate GI50 recorded for CC(C)[Si](OC1=C(c2ccccc2)C(NC(=O)/C=C/c2ccc([N+](=O)[O-])cc2)CCC1)(C(C)C)C(C)C (stereo unspecified)
> 100 µM (inactive)

Please indicate GI50 recorded for Cc1ccc(N2C(=O)CC(=O)N(NC(=O)C(C)Oc3ccccc3C)C2=S)cc1 (stereo unspecified)
> 100 µM (inactive)

Please indicate GI50 recorded for Cc1ccc(OC2CC(n3cnc4ncnc(Cl)c43)OC2Oc2ccc(C)cc2)cc1 (stereo unspecified)
14.8 µM (inactive)

====

# Test system: COLO 205
# testDetails: NCI tumour cell line growth inhibition, 48 h
The source made the active and inactive calls. Cut-off read from the data, not from the text of the source: active = GI50 up to about 1.1 µM and inactive = higher.
outcomeMeasure: GI50

See these solved cases before continuing.
{"compound": "C/C(CC(=O)Nc1ccc(Cl)c(Cl)c1)=N/NC(=O)C[n+]1ccccc1", "GI50": "31.8 µM (inactive)"}
{"compound": "Cc1ccc(Cl)c(NC(=O)C(=O)C(C(=O)c2ccncc2)C2OC(=O)c3ccccc32)c1 (configuration not stated)", "GI50": "> 100 µM (inactive)"}
{"compound": "O=c1c(Cc2cccc(Cc3c(O)oc4ccccc4c3=O)c2)c(O)oc2ccccc12", "GI50": "> 100 µM (inactive)"}
{"compound": "CC(C)(C)[Si](C)(C)OCC1CCC(n2cnc3c(N)ncnc32)O1 (configuration not stated)", "GI50": "> 100 µM (inactive)"}
{"compound": "CC1(C)N=C(N)N=C(N)N1c1ccc(Cl)cc1", "GI50": "7.06 µM (inactive)"}

Please indicate GI50 recorded for Cc1ccc(NC(=O)CC2Sc3ccccc3NC2=O)c(C)c1 (configuration not stated)
8.55 µM (inactive)

Please indicate GI50 recorded for O=C1N2CCN=C2c2ccccc2C1(O)c1ccccc1 (configuration not stated)
> 100 µM (inactive)

====

GI50 overview
# Tested on: OVCAR-3
# testDetails: NCI tumour cell line growth inhibition, 48 h
Calls of active or inactive are those of the source. No stated cut-off is given here; in the data, active = GI50 up to about 1.1 µM and inactive = higher.

{"molecule": "Cc1ccc(NC(=O)CCc2nnc3s/c(=C\\c4cccc([N+](=O)[O-])c4)c(=O)n23)cc1", "targetOrTestSystem": "OVCAR-3", "GI50": "> 100 µM (inactive)"}

Please indicate GI50 recorded for `CC(=O)Oc1ccccc1C(=O)O`
> 100 µM (inactive)

Please indicate GI50 recorded for `CC(C)(C)C1=CC(O)(c2c3ccccc3c(C3(O)C=C(C(C)(C)C)C(=O)C(C(C)(C)C)=C3)c3ccccc23)C=C(C(C)(C)C)C1=O`
> 100 µM (inactive)

Please indicate GI50 recorded for `COc1ccc(/C=N/N=C(\N)NO)c(OC)c1`
37.7 µM (inactive)

Please indicate GI50 recorded for `CC(C)(C)c1ccc(Oc2ccc(C#N)c(C#N)c2)c(C(C)(C)C)c1`
40.1 µM (inactive)

Please indicate GI50 recorded for `O=C(O)CCSC(=O)Nc1ccccc1`
> 100 µM (inactive)

Please indicate GI50 recorded for `COc1ccc2oc(-c3cc4cc(OC)ccc4o3)cc2c1`
> 100 µM (inactive)

Please indicate GI50 recorded for `CNc1ncnc2c1cnn2Cc1cn(CCCCO)nn1`
> 100 µM (inactive)

Please indicate GI50 recorded for `Cc1ccc(O)c(C(c2cc(C)ccc2O)c2cc([N+](=O)[O-])ccc2O)c1`
12.4 µM (inactive)

Please indicate GI50 recorded for `COC(=O)Cc1c(C(=O)CC(C)(C)n2cnc(CCN3C(=O)CCC3=O)c2)[nH]c2ccccc12`
> 100 µM (inactive)

Please indicate GI50 recorded for `CC(=O)Oc1ccc2c3c1[C@@H]1O[C@@H]1c1cccc(c1-3)[C@@H]1O[C@H]21`
2 µM (inactive)

Please indicate GI50 recorded for COc1ccc(N2C(=O)C3c4[nH]c5ccc(OCc6ccccc6)cc5c4C4CCC(C(C)(C)C)CC4C3C2=O)cc1 (stereo not given)
57.5 µM (inactive)

Please indicate GI50 recorded for Cc1ccc(NC(=O)CC2Sc3ccccc3NC2=O)c(C)c1 (stereo not given)
12.2 µM (inactive)

Please indicate GI50 recorded for `c1ccc([P+](c2ccccc2)(c2ccccc2)C2c3ccccc3-c3ccccc32)cc1`
1.87 µM (inactive)

Please indicate GI50 recorded for `CCOC(=O)N1C=CC(=C2C(=C3C=CN(C(=O)OCC)C=C3)C(=C3C=CN(C(=O)OCC)C=C3)C2=C2C=CN(C(=O)OCC)C=C2)C=C1`
22.4 µM (inactive)
